# Tested System: LPA2 (Homo sapiens, UniProt Q9HBW0)
# Sequence (Q9HBW0 whole entry, species assumed): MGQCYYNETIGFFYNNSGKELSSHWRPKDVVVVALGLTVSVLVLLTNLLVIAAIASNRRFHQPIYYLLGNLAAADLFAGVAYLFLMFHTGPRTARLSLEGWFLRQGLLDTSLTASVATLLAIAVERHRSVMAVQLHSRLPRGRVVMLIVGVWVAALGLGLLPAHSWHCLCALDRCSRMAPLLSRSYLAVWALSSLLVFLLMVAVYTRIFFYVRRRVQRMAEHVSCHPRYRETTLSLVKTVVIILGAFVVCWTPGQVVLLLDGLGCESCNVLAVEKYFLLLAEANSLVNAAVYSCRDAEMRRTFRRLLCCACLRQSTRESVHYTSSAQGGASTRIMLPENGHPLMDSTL
# Assay Explanation: Ca2+ transients in RH7777 cells expressing LPA2 (agonist / inhibition of LPA response)
# Experimental Setup: RH-LPA2 cells IC50, inhibition of 200 nM LPA response
pIC50: −log10 of the molar value.

| Molecule | Tested System | pIC50 |
| --- | --- | --- |
| CCCCCCCC/C=C\CCCCCCCC1OCC(COP(=O)([O-])O)O1.[K+] (centres unmarked) [Analog 13] | LPA2 (Homo sapiens, UniProt Q9HBW0) | 6.34 |
| CCCCCCCCCCCCC1OCC(COP(=O)(O)O)O1 (centres unmarked) [Analog 12] | LPA2 (Homo sapiens, UniProt Q9HBW0) | 6.40 |

====

# Tested System: LPA1 (Homo sapiens)
# Sequence (Q92633 whole entry, species assumed): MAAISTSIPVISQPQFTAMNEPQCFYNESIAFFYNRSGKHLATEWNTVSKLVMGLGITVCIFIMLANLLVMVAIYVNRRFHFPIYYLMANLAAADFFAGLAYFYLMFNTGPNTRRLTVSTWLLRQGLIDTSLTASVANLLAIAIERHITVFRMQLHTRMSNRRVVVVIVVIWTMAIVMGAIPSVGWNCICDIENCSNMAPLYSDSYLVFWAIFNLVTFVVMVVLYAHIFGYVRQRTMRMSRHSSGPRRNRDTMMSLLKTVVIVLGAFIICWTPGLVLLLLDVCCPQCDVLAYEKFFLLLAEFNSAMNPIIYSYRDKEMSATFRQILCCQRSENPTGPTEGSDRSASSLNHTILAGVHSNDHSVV
# Assay Explanation: Ca2+ transients in RH7777 cells expressing LPA1 (agonist / inhibition of LPA response)
# Experimental Setup: LPA1 IC50, Table 5
pIC50: −log10 of the molar value.

| Compound | Tested System | pIC50 |
| --- | --- | --- |
| CCCCCCCC(=O)OCC(COP(=O)(O)O)OC(=O)CCCCCCC (stereo not shown) [Cpd 2, phosphatidic acid 8:0, reference compound] | LPA1 (Homo sapiens) | 6.16 |

====

# Tested System: lysophospholipase D (autotaxin, ATX) (Homo sapiens, UniProt Q13822)
Readout Name: IC50 (nM)

| Molecule | Tested System | Readout Name | Value Unit | Readout Value |
| --- | --- | --- | --- | --- |
| CCCCCCCCC=CCCCCCCCC1OCC(COP(=O)([O-])O)O1.[K+] (stereo not drawn) [Analog 37] | lysophospholipase D (autotaxin, ATX) (Homo sapiens, UniProt Q13822) | IC50 | nM | 238 |
| CCCCCCCCC=CCCCCCCCC1OCC(COP(=O)([O-])O)O1.[K+] (mixture of isomers) [Analog 13] | lysophospholipase D (autotaxin, ATX) (Homo sapiens, UniProt Q13822) | IC50 | nM | 141 |
| CCCCCCCCC=CCCCCCCCC1OCC(COP([O-])(O)=S)O1.[K+] (stereo not drawn) [Analog 38] | lysophospholipase D (autotaxin, ATX) (Homo sapiens, UniProt Q13822) | IC50 | nM | 363 |

====

# Tested System: LPA3 (Homo sapiens, UniProt Q9UBY5)
# Assay Explanation: Ca2+ transients in RH7777 cells expressing LPA3 (agonist / inhibition of LPA response)
# Experimental Setup: read-out: LPA3 IC50; Table 3
pIC50: −log10 of the molar value.
Recorded measurements of pIC50, one per entry
Readout Name: pIC50

| Molecule | Comparison Operator | Readout Value |
| --- | --- | --- |
| CCCCCCCCC=CCCCCCCCC1OCC(COP([O-])(O)=S)O1.[K+] (stereo not shown) | < | 4.52 |
| CCCCCCCCC=CCCCCCCCC1OCC(COP(=O)([O-])O)O1.[K+] (stereo not shown) [Analog 37] | = | 6.32 |
| CCCCCCCCC=CCCCCCCCC1OCC(COP(=O)([O-])O)O1.[K+] (mixture of isomers) [Analog 13] | = | 6.28 |
| CCCCCCCCCCCCC1OCC(COP(=O)(O)O)O1 (stereo not shown) | = | 5.54 |

====

# Tested System: LPA3 (Homo sapiens, UniProt Q9UBY5)
# Sequence (Q9UBY5 1-353): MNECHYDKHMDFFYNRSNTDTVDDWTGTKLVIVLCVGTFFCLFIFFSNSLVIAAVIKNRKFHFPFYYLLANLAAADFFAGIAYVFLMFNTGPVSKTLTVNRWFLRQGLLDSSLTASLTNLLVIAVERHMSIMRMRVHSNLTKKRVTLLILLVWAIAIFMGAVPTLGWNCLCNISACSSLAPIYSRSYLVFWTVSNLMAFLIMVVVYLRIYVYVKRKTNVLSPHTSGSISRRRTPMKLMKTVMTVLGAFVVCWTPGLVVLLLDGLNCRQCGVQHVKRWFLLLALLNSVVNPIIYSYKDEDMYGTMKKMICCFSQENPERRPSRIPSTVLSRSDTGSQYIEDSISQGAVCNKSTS
# Assay Explanation: Ca2+ transients in RH7777 cells expressing LPA3 (agonist / inhibition of LPA response)
# Experimental Setup: read-out: LPA3 Ki
pKi: −log10 of the molar value.

| Mol Smiles | pKi |
| --- | --- |
| CCCCCCCC(=O)OC[C@H](COP(O)(O)=S)OC(=O)CCCCCCC | 8.30 |
